# measured-on: glucagon receptor (human, UniProt P47871 26-477)
# Sequence (P47871 26-477): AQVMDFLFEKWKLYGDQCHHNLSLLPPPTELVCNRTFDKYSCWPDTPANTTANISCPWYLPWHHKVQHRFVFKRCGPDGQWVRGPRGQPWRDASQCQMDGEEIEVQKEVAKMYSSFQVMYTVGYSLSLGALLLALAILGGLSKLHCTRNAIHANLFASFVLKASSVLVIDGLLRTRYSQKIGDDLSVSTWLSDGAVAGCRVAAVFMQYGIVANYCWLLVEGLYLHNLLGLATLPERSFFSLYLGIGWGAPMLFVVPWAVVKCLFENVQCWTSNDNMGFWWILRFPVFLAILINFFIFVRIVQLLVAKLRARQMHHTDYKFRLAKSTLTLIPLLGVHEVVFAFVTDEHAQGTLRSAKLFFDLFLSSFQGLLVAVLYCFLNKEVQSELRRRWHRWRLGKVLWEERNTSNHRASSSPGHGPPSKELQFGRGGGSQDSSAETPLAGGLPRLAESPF
# protocol-details: cell-based or functional assay
*1 amine or outer side, *2 acyl side, *3 side chain or, on linkers, in order; H or OH if unused. Where no end group is shown, it is not given here. Side-chain parts run from the residue outwards. The star is where a group is joined. C18 diacid = O=C(O)CCCCCCCCCCCCCCCCC(=O)*; γGlu = O=C(O)[C@H](CCC(=O)[*:2])N[*:1]; AEEA = NCCOCCOCC(=O)O
quantity: Assay (I) Glucagon [EC50] (nM)

Example entries and their recorded answers appear below.
binder	quantity	endpoint-result
HSQGTFTSDYSKYLDIRRAQDFVK([γGlu-γGlu-AEEA-AEEA-γGlu-C18 diacid])WLLST	Assay (I) Glucagon [EC50]	0.084
HSQGTFTSDYSRYLDLRRAQDFVK([γGlu-γGlu-AEEA-AEEA-γGlu-C18 diacid])WLLTT	Assay (I) Glucagon [EC50]	0.754
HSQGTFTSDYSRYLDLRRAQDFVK([γGlu-γGlu-AEEA-AEEA-γGlu-C18 diacid])WLEST	Assay (I) Glucagon [EC50]	0.136

[A] HSQGTFTSDYSKYLDTRRAQEFVK([γGlu-AEEA-AEEA-γGlu-C18 diacid])WLLNV
[B] HSHGTFTSDYSKYLDSKRAQEFVK([γGlu-γGlu-AEEA-γGlu-C18 diacid])WLLST
Decide: A or B , by lowest recorded Assay (I) Glucagon [EC50]. Returns: label corresponding to the selected item. B
